Target: Recombinant full length human CBS (Homo sapiens, UniProt P35520)
Assay: AzMC fluorescence assay of CBS-derived H2S production
Type: biochemical
Settings: read-out: Initial screen (% inhibition of CBS-induced AzMC fluorescence), 30 μM
Given measured inhibition at 30 µM, output Fulfilled if it is greater than or equal to 50% and Not fulfilled if not.

[[record]]
smiles_input = "NC(=O)N/N=C/c1ccc([N+](=O)[O-])o1"
classification = "Fulfilled"

[[record]]
smiles_input = "CC(C)/N=c1\\cc2n(-c3ccc(Cl)cc3)c3ccccc3nc-2cc1Nc1ccc(Cl)cc1"
classification = "Not fulfilled"

[[record]]
smiles_input = "O=C(OC[C@H]1O[C@@H](OC(=O)c2cc(O)c(O)c(OC(=O)c3cc(O)c(O)c(O)c3)c2)[C@H](OC(=O)c2cc(O)c(O)c(OC(=O)c3cc(O)c(O)c(O)c3)c2)[C@@H](OC(=O)c2cc(O)c(O)c(OC(=O)c3cc(O)c(O)c(O)c3)c2)[C@@H]1OC(=O)c1cc(O)c(O)c(OC(=O)c2cc(O)c(O)c(O)c2)c1)c1cc(O)c(O)c(OC(=O)c2cc(O)c(O)c(O)c2)c1"
classification = "Fulfilled"


Reported inhibition at 30 µM at or above 50%? Oc1c(Cl)cc(Cl)c(Cl)c1Cc1c(O)c(Cl)cc(Cl)c1Cl.Oc1c(Cl)cc(Cl)c(Cl)c1Cc1c(O)c(Cl)cc(Cl)c1Cl
Not fulfilled

====

Biological target: Recombinant full length human CBS (Homo sapiens)
Sequence (P35520 1-551): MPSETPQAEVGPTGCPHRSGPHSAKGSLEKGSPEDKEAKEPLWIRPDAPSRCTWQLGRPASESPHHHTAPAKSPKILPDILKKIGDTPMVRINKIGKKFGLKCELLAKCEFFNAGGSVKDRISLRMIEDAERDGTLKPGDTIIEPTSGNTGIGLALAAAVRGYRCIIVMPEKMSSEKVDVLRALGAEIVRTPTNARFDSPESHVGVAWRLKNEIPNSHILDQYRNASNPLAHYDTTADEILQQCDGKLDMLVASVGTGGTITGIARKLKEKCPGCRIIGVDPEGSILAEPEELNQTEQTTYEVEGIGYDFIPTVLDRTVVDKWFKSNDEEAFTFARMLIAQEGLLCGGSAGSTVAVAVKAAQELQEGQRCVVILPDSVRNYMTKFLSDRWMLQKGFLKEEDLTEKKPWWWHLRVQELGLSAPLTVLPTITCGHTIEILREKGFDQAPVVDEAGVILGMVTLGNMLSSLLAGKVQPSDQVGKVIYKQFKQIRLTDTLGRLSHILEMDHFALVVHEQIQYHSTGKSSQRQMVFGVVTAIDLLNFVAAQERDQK
Experiment: AzMC fluorescence assay of CBS-derived H2S production
Type: biochemical
Conditions: read-out: Initial screen (% inhibition of CBS-induced AzMC fluorescence), 30 μM
metric_name: inhibition at 30 µM (%)
Field: numeric (%). Do not append units.

Sample answers from the record:
[[record]]
molecule = "Cc1cc2nc3c(=O)[nH]c(=O)nc-3n(C)c2cc1C=O [Ro-08-2750]"
metric_name = "inhibition at 30 µM"
reported = 55

[[record]]
molecule = "CC(=O)[C@H]1CC[C@H]2[C@@H]3CCC4=CC(=O)CC[C@]4(C)[C@H]3CC[C@]12C [Progesterone]"
metric_name = "inhibition at 30 µM"
reported = 68

[[record]]
molecule = "O=Nc1ccc(O)c2ncccc12 [NSC 3852, 5-Nitroso-8-quinolinol]"
metric_name = "inhibition at 30 µM"
reported = 58

[[record]]
molecule = "O=C(O)C1=CC(=C(c2ccc(O)c(C(=O)O)c2)c2ccc(O)c(C(=O)O)c2)C=CC1=O [Aurintricarboxylic acid]"
metric_name = "inhibition at 30 µM"
reported = 59

[[record]]
molecule = "O=C1C(SCCO)=C(SCCO)C(=O)c2ccccc21 [NSC 95397]"
metric_name = "inhibition at 30 µM"
reported = 68


Now look at this one.
Fill: inhibition at 30 µM (Recombinant full length human CBS (Homo sapiens)) for this molecule O=C(N/N=C/c1ccc([N+](=O)[O-])o1)c1ccc(O)cc1 [Nifuroxazide]
48
